molecular target: T1, human PD-1^ECD-hFc protein (Immunogen A) (human, UniProt Q15116 25-167); assay: ELISA, coated human PD-1ECD-hFc; antibody 0.01 nM
T1 construct: Biotinylated for the Octet assay; also called PD-1-hFc; hPD-1^ECD-hFc; not shown: human IgG Fc fragment (hFc)
T1 sequence (Q15116 25-167): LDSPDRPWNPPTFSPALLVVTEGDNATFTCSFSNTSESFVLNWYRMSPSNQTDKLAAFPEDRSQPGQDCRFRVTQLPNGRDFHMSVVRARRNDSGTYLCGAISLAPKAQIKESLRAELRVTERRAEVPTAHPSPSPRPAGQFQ
RECORDED_ENDPOINT: OD450 nm

Below are worked cases with known answers.
BINDER	RECORDED_VALUE
chimeric anti-PD-1 antibody 226C3A7 (antibody, V domains shown, Purified from hybridoma of Harbour H2L2 mice: human variable regions, rat constant regions) VH: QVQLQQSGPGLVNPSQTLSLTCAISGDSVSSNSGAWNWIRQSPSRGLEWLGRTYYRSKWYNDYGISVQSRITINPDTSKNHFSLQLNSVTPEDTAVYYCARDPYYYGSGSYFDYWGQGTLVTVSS VL: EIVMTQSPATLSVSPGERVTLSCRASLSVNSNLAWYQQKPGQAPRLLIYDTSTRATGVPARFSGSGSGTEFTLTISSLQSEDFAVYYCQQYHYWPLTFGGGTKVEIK	0.9
chimeric anti-PD-1 antibody 32B5C7 (antibody, V domains shown, Purified from hybridoma of Harbour H2L2 mice: human variable regions, rat constant regions) VH: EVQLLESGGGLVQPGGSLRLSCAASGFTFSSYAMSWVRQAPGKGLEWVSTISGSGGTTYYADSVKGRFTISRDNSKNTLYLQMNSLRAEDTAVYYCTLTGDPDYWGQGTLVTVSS VL: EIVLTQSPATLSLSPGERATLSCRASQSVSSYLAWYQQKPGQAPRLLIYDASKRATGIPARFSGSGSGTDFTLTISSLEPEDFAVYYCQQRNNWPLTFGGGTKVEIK	0.55
chimeric anti-PD-1 antibody 21G8F11 (antibody, V domains shown, Purified from hybridoma of Harbour H2L2 mice: human variable regions, rat constant regions) VH: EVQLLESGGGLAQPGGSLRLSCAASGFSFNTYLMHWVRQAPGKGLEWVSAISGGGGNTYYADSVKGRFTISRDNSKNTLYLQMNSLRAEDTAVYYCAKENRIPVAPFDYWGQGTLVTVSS VL: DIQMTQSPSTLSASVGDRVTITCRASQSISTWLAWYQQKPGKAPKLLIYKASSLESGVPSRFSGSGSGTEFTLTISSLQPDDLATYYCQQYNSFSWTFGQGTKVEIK	0.669

# context switch: different binder, same OD450 nm
Query (binder): chimeric anti-PD-1 antibody 76G5B3 (antibody, V domains shown, Purified from hybridoma of Harbour H2L2 mice: human variable regions, rat constant regions) VH: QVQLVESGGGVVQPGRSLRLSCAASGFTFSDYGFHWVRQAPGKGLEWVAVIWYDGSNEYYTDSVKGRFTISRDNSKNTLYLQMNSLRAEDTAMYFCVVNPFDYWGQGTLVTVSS VL: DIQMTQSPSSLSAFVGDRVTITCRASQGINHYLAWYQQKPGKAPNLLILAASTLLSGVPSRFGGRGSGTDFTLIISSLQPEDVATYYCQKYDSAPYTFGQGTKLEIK ; field requested: OD450 nm
0.65
